From: patent US20120214862A1

Tested on: human Factor 7 mRNA
Test: Antisense inhibition of human Factor 7 mRNA in HepB3 cells, lipofectin, 50 nM, real-time RT-PCR
Assay type: cell-based
Details: HepB3 cells; gapmers targeted to nucleobases 11830 to 11869 of SEQ ID NO: 1 (Table 9)
In the oligonucleotide strings, read from the 5' end, every base follows the letter of its sugar. An asterisk marks phosphorothioate; unmarked linkages are phosphodiester. Other units and linkages are bracketed, terminal groups are in braces. A string of capitals states the bases alone. e = 2'-O-(2-methoxyethyl) (MOE); [5mC] = 5-methylcytosine; d = 2'-deoxy (DNA)
Rule: % Inhibition of human Factor 7 mRNA levels under 50% gives Not met, otherwise Met.

## Task Is % Inhibition of human Factor 7 mRNA levels for 422243 (antisense eA*eG*dG*dA*dG*dA*d[5mC]*dA*dA*dT*dG*dG*dT*d[5mC]*dA*eG*eG*eG*e[5mC]*eT) [compound 422243] at or above 50%?
## Result Met

## Task Is % Inhibition of human Factor 7 mRNA levels for 422167 (antisense eG*eA*eG*dG*dA*dG*dA*d[5mC]*dA*dA*dT*dG*dG*dT*d[5mC]*dA*dG*eG*eG*e[5mC]) [compound 422167] at or above 50%?
## Result Met

## Task Is % Inhibition of human Factor 7 mRNA levels for 422104 (antisense eG*eG*e[5mC]*eT*eG*dA*dG*dG*dA*dG*dA*d[5mC]*dA*dA*dT*eG*eG*eT*e[5mC]*eA) [compound 422104] at or above 50%?
## Result Met

## Task Is % Inhibition of human Factor 7 mRNA levels for 422159 (antisense eA*eA*eT*dG*dG*dT*d[5mC]*dA*dG*dG*dG*d[5mC]*dT*dG*dG*dT*dT*eT*eT*eG) [compound 422159] at or above 50%?
## Result Not met

## Task Is % Inhibition of human Factor 7 mRNA levels for 422160 (antisense e[5mC]*eA*eA*dT*dG*dG*dT*d[5mC]*dA*dG*dG*dG*d[5mC]*dT*dG*dG*dT*eT*eT*eT) [compound 422160] at or above 50%?
## Result Not met

## Task Is % Inhibition of human Factor 7 mRNA levels for 422231 (antisense eT*e[5mC]*dA*dG*dG*dG*d[5mC]*dT*dG*dG*dT*dT*dT*dT*dG*eG*eA*eG*eG*eA) [compound 422231] at or above 50%?
## Result Not met

* * *

Answer each item with its documented percent inhibition of Factor 7 mRNA, relative to untreated control cells.
System: human Factor 7 mRNA
Assay: Dose-dependent antisense inhibition of human Factor 7 in HepB3 cells, transfection with lipofectin
Format: cell-based
Conditions: 100 nM, lipofectin, HepB3 cells, 16 hours
In the oligonucleotide strings, read from the 5' end, every base follows the letter of its sugar. An asterisk marks phosphorothioate; unmarked linkages are phosphodiester. Other units and linkages are bracketed, terminal groups are in braces. A string of capitals states the bases alone. e = 2'-O-(2-methoxyethyl) (MOE); [5mC] = 5-methylcytosine; d = 2'-deoxy (DNA)
Field note: include the unit after the figure.

What the record says about 422229 (antisense eA*eT*dG*d[5mC]*dA*dT*dG*dG*dT*dG*dA*dT*dG*d[5mC]*dT*eT*e[5mC]*eT*eG*eA) [compound 422229] : percent inhibition of Factor 7 mRNA, relative to untreated control cells is 92%

What the record says about 422292 (antisense eG*eT*dT*d[5mC]*dT*dG*d[5mC]*dA*dG*dG*dA*dG*d[5mC]*dG*dG*e[5mC]*e[5mC]*eT*eA*eA) [compound 422292] : percent inhibition of Factor 7 mRNA, relative to untreated control cells is 83%

What the record says about 422217 (antisense eG*eA*eG*dT*dT*d[5mC]*dT*dG*d[5mC]*dA*dG*dG*dA*dG*d[5mC]*dG*dG*e[5mC]*e[5mC]*eT) [compound 422217] : percent inhibition of Factor 7 mRNA, relative to untreated control cells is 83%

What the record says about 422294 (antisense eG*eA*dG*dT*dT*d[5mC]*dT*dG*d[5mC]*dA*dG*dG*dA*dG*d[5mC]*eG*eG*e[5mC]*e[5mC]*eT) [compound 422294] : percent inhibition of Factor 7 mRNA, relative to untreated control cells is 84%

What the record says about 407935 (antisense eA*eT*eG*e[5mC]*eA*dT*dG*dG*dT*dG*dA*dT*dG*d[5mC]*dT*eT*e[5mC]*eT*eG*eA) [compound 407935] : percent inhibition of Factor 7 mRNA, relative to untreated control cells is 87%

What the record says about 422096 (antisense eA*eG*eA*e[5mC]*eA*dA*dT*dG*dG*dT*d[5mC]*dA*dG*dG*dG*e[5mC]*eT*eG*eG*eT) [compound 422096] : percent inhibition of Factor 7 mRNA, relative to untreated control cells is 82%
